experiment: self-splicing fitness, log relative to wild type (ln ratio); higher = more splicing; Tetrahymena group I intron in knt gene, E. coli kanamycin selection, DiMSum; sequences stand for … in CUCUCU…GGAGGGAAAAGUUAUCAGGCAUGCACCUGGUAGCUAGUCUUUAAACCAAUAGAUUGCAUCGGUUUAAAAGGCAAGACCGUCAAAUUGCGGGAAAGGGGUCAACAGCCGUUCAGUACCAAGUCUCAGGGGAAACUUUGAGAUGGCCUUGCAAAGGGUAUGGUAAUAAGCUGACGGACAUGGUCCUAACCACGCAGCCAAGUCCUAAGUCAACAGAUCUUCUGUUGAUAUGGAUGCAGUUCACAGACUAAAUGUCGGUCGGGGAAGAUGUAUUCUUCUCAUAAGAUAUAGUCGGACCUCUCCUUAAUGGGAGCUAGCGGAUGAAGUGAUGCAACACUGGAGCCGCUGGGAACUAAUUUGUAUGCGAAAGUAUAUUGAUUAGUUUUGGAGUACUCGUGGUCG; conditions: 30 °C;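 note: selection with 25 µg/mL kanamycin versus none on LB agar overnight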

sequence_input	self-splicing fitness (ln)
ACUGAGCAAUAUUACGUAGC	-3.07
GAGAAGCAAUAUUACGUUUG	-2.98
CUCCAGCAAUAUUACGAGGC	-3.02

====

test: self-splicing fitness, log relative to wild type (ln ratio); higher = more splicing; Tetrahymena group I intron in knt gene, E. coli kanamycin selection, DiMSum; sequences stand for … in CUCUCU…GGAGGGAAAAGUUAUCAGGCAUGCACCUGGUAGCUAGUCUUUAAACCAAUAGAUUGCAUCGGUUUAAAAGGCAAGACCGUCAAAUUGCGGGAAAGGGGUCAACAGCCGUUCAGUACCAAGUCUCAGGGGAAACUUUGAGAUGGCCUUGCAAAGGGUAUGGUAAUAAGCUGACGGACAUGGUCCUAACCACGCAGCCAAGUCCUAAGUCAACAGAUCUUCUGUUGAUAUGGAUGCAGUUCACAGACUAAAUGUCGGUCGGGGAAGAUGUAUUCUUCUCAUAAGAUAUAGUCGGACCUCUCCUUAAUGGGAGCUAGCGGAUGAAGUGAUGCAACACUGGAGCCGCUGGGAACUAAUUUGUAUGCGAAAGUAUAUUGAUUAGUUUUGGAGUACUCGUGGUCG; conditions: 30 °C
Use -2 as the dividing line for self-splicing fitness (ln), with the line itself on the class 1 side and lower values as class 0.

sequence_input	label
CCAGAGCAAUAUUACGCCUC	class 0
AAUGAGCAAUAUUACGUCCU	class 1
CUGCAGCAAUAUUACGAAGA	class 1
UAAAAGCAAUAUUACGUCUC	class 0
AUUUAGCAAUAUUACGCGUG	class 1
GGGGAGCAAUAUUACGUAAG	class 0
CUAAAGCAAUAUUACGUCGC	class 0
GGGCAGCAAUAUUACGCUCG	class 1
GCCGAGCAAUAUUACGGUCU	class 0
CACCAGCAAUAUUACGCUCG	class 1
GGCGAGCAAUAUUACGAUGG	class 0
AACGAGCAAUAUUACGUCUA	class 0
ACAAAGCAAUAUUACGGCCG	class 1
CACAAGCAAUAUUACGCCCU	class 0
AGGUAGCAAUAUUACGAAAG	class 0
GUCAAGCAAUAUUACGAAAG	class 0
GAGUAGCAAUAUUACGCAUC	class 0
GAAAAGCAAUAUUACGUCAU	class 1
GAGAAGCAAUAUUACGUACU	class 1
UCGCAGCAAUAUUACGGCAG	class 1
UGAAAGCAAUAUUACGUCCA	class 1
AAAUAGCAAUAUUACGUCCC	class 1
GGCGAGCAAUAUUACGCUAA	class 0
CAAUAGCAAUAUUACGCUGA	class 0
CCGGAGCAAUAUUACGGUAA	class 0
GGGCAGCAAUAUUACGUAGA	class 1
GCACAGCAAUAUUACGAGCG	class 1

====

assay: self-splicing fitness, log relative to wild type (ln ratio); higher = more splicing; Tetrahymena group I intron in knt gene, E. coli kanamycin selection, DiMSum; sequences stand for … in CUCUCU…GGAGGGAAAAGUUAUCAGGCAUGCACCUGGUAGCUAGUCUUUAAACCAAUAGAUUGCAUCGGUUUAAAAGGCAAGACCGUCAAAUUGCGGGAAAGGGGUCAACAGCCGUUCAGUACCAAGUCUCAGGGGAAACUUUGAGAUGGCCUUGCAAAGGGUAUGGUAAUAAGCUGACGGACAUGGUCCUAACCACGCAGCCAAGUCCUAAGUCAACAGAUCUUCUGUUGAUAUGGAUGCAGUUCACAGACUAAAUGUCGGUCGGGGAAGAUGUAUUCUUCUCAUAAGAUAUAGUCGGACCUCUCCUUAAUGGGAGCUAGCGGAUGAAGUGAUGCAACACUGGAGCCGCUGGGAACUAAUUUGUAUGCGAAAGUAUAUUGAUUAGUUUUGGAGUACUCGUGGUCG; details: 30 °C
Quick list: self-splicing fitness (ln) per entry.
measured_metric: self-splicing fitness (ln)

sequence_input	measured_metric	value_reported
CGAUAGCAAUAUUACGGAAC	self-splicing fitness (ln)	-2.5
AGCGAGCAAUAUUACGUAGC	self-splicing fitness (ln)	-2.83
GGUGAGCAAUAUUACGUAUU	self-splicing fitness (ln)	-1.96
AUUAAGCAAUAUUACGCGGG	self-splicing fitness (ln)	-2.61
GCCGAGCAAUAUUACGAGCU	self-splicing fitness (ln)	-2.84
AAGGAGCAAUAUUACGGUCU	self-splicing fitness (ln)	-2.3
GUGUAGCAAUAUUACGGCAA	self-splicing fitness (ln)	-0.687
GAGUAGCAAUAUUACGGCGC	self-splicing fitness (ln)	-0.602
UAUAAGCAAUAUUACGUUAC	self-splicing fitness (ln)	-3.45
CAGCAGCAAUAUUACGGGAC	self-splicing fitness (ln)	-3.71
GUAGAGCAAUAUUACGUCUA	self-splicing fitness (ln)	-1.34
AGAUAGCAAUAUUACGCCAU	self-splicing fitness (ln)	-2.38
UGUAAGCAAUAUUACGAUAA	self-splicing fitness (ln)	-1.12
AUGGAGCAAUAUUACGGCUG	self-splicing fitness (ln)	-2.48
AAAUAGCAAUAUUACGACUA	self-splicing fitness (ln)	-0.367
AAAAAGCAAUAUUACGACGG	self-splicing fitness (ln)	-1.76
CGAGAGCAAUAUUACGUGUC	self-splicing fitness (ln)	-3.05
AAAGAGCAAUAUUACGGUAA	self-splicing fitness (ln)	-1.74
UAGGAGCAAUAUUACGUUUU	self-splicing fitness (ln)	-1.88
CAACAGCAAUAUUACGUCAG	self-splicing fitness (ln)	-0.334
ACUAAGCAAUAUUACGUCGA	self-splicing fitness (ln)	-1.04
ACGUAGCAAUAUUACGCACC	self-splicing fitness (ln)	-1.18
CGGUAGCAAUAUUACGGGCA	self-splicing fitness (ln)	-1.75
GUGCAGCAAUAUUACGAAAC	self-splicing fitness (ln)	-1.82
GUUUAGCAAUAUUACGCACA	self-splicing fitness (ln)	-0.867
GAAAAGCAAUAUUACGCCAG	self-splicing fitness (ln)	-2.72
AGUGAGCAAUAUUACGUGAC	self-splicing fitness (ln)	-2.02
AACAAGCAAUAUUACGUUAU	self-splicing fitness (ln)	-3.49
AAUGAGCAAUAUUACGUCUC	self-splicing fitness (ln)	-2.96
UGAAAGCAAUAUUACGCAGG	self-splicing fitness (ln)	-2.65
CGGUAGCAAUAUUACGCUCA	self-splicing fitness (ln)	-0.279
AAAGAGCAAUAUUACGGGUU	self-splicing fitness (ln)	-3.43
UCAUAGCAAUAUUACGAGAC	self-splicing fitness (ln)	-2.84
GGCAAGCAAUAUUACGGGUG	self-splicing fitness (ln)	-0.914
CAUCAGCAAUAUUACGUGAC	self-splicing fitness (ln)	-3.66
UCGAAGCAAUAUUACGUGAG	self-splicing fitness (ln)	-0.469
GUGUAGCAAUAUUACGCCGC	self-splicing fitness (ln)	-3
UCGGAGCAAUAUUACGGUAA	self-splicing fitness (ln)	-3.18
ACUAAGCAAUAUUACGUAUG	self-splicing fitness (ln)	-3.55
CAUCAGCAAUAUUACGAUCG	self-splicing fitness (ln)	-0.307
CUUUAGCAAUAUUACGUCAU	self-splicing fitness (ln)	-4.6
CGUCAGCAAUAUUACGUCGA	self-splicing fitness (ln)	-2.18
CGCCAGCAAUAUUACGGCGA	self-splicing fitness (ln)	-3.29
UCAAAGCAAUAUUACGCCGA	self-splicing fitness (ln)	-1.49
CCUCAGCAAUAUUACGGCCG	self-splicing fitness (ln)	-2.11
GGCAAGCAAUAUUACGAUGC	self-splicing fitness (ln)	-2.36
CGUUAGCAAUAUUACGAACC	self-splicing fitness (ln)	-0.385
GAGAAGCAAUAUUACGAAUU	self-splicing fitness (ln)	-2.27
UGUUAGCAAUAUUACGGUUU	self-splicing fitness (ln)	-2.82
UCCGAGCAAUAUUACGCCCU	self-splicing fitness (ln)	-2.74

Hello, the source for this data is the supplement of paper PMC7877785, in case you need it.
